PROTOCOL DESCRIPTION: Clearance in female BALB/C mouse at 2.5 mg/kg, iv administrated and measured upto 24 hrs by LC-MS/MS
Type: ADME, organism-based
ASSAY CONDITIONS: in vivo
MEASURED PROPERTY: clearance (mL/min/kg)
Kindly answer with a numeric value in mL/min/kg, unit omitted.

stdin: State its clearance for this compound: O=C(N/N=C/c1cc(Br)c(O)c(Br)c1O)c1cc2ccccc2cc1O
stdout: 42.2

###

Would you kindly list pIC50 for each of these compounds?
System: NB-4
PROTOCOL DESCRIPTION: Antiproliferative activity against human NB4 cells incubated for 72 hrs by CCK8 assay
Assay type: functional, cell-based
ASSAY CONDITIONS: NB-4, 72 h
# log scale: pIC50 equals minus log10 of the concentration in mol/L

stdin: State its pIC50 for this compound: COc1ccc(C(=O)N/N=C/c2cc(Br)c(O)c(Br)c2O)cc1
stdout: 5.74

stdin: State its pIC50 for this compound: O=C(N/N=C/c1cc(Br)c(O)c(Br)c1O)c1cc2cc(Br)ccc2cc1O
stdout: 6.25

stdin: State its pIC50 for this compound: O=C(N/N=C/c1cc(Br)c(O)c(Br)c1O)c1ccc2ccccc2c1O
stdout: 6.24

stdin: State its pIC50 for this compound: Cc1noc(C)c1-c1cc(Cl)c(Nc2ccccc2C(=O)O)c(Cl)c1
stdout: 4.68
